From: paper PMC6068142

- studySystem: AcmJRL (Ananas comosus)
- Construct: native, purified from pineapple stem (D-mannose-Agarose, Superdex 75); initiator Met absent; N-terminus SGLVGLG; residues 2-145; not glycosylated; homodimer in solution, tetramer in crystal
- Sequence (Q53J09 2-145): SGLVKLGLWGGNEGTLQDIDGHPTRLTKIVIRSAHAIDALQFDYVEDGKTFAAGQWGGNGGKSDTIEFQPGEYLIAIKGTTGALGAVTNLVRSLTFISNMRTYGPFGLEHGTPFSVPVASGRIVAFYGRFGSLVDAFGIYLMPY
- Design: inhibition of lectin-induced rat erythrocyte hemagglutination, two-fold serial dilution, lowest saccharide concentration visibly decreasing agglutination
- experimentalConditions: minimum concentration inhibiting hemagglutination of rat erythrocytes; inhibitor
reportedMetric: MIC

Illustrative cases are given below, each with its answer.
| compound | MIC |
| --- | --- |
| OC[C@H]1OC(O)[C@@H](O)[C@@H](O)[C@@H]1O (stereo partly drawn) [D-Mannose] | 6250 µM |
| OC[C@H]1O[C@H](O[C@H]2[C@H](O)[C@@H](CO)OC(O)[C@H]2O)[C@@H](O)[C@@H](O)[C@@H]1O (stereo partly shown) [Manα1,3Man] | 940 µM |
| OC[C@H]1O[C@H](OC[C@H]2OC(O)[C@@H](O)[C@@H](O[C@H]3O[C@H](CO)[C@@H](O)[C@H](O)[C@@H]3O)[C@@H]2O)[C@@H](O)[C@@H](O)[C@@H]1O (stereo partly shown) [Mannotriose] | 470 µM |

Attention now turns to another entry.
Problem: # lookup: MIC of CC(=O)N[C@H]1C(O)O[C@H](CO)[C@@H](O)[C@@H]1O (stereo partly shown) [GlcNAc]
Solution: 3120 µM
